target: Cytochrome P450 1A2 (Homo sapiens) (UniProt P05177); test: Cytochrome P450 Family 1 Subfamily A Member 2 (CYP1A2) small molecule antagonists: luciferase reporter qHTS assay (AID 1671199); conditions: P450-Glo CYP1A2 enzyme, luciferin luminescence, 1 h; series mostly up to 53 µM; further: nearly all actives have a fitted effect of over 50% in size
Sequence (P05177 whole entry, looked up): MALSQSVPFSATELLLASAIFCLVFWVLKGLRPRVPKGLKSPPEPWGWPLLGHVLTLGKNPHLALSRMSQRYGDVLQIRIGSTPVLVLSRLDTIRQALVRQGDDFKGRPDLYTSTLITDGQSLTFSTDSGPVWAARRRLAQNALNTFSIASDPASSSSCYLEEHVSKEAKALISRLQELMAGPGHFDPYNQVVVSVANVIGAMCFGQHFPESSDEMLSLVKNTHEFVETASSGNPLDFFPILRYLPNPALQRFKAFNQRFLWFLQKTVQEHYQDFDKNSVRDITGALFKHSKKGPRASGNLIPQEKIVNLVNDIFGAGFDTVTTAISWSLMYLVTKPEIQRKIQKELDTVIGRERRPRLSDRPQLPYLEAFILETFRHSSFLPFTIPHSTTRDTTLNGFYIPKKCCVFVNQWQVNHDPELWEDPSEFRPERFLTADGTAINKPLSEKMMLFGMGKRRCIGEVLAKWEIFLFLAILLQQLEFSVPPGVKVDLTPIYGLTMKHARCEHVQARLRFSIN
Results filed as inconclusive are left out. The source made the active and inactive calls. The call rests on the fitted dose curve; in most records, active means well fitted inhibition curve with a large enough effect in the repeat runs; inconclusive means weak or mixed curves; inactive means no such curve, though single readings can be large or run the other way.
Please answer using one outcome listed in active, inactive

1. COc1ccc2cccc(CCNC(C)=O)c2c1 :: active
2. Cc1ccccc1S(=O)(=O)O :: inactive
3. Nc1ccc([N+](=O)[O-])c(C(F)(F)F)c1 :: active
4. CC/C=C\CCOC(=O)CC :: inactive
5. OC[C@H]1O[C@@H](OCCc2ccc(O)cc2)[C@H](O)[C@@H](O)[C@@H]1O :: inactive

# lookup: test call for `CCOC(=O)NCCOc1ccc(Oc2ccccc2)cc1`
active

Hi team, can someone confirm the assay call for `CCNc1cc(O)ccc1C` ?
active

State the result this test recorded for `CCCCCCCCCCCC(=O)OC[C@@H](O)[C@H]1OC[C@H](OCCO)[C@H]1OCCO` .
inactive

Dear all, I need the recorded test outcome for CCN(CC)CCOC(=O)C(c1ccccc1)C1CCCCC1 (stereo not given) , thank you.
active

Record lookup: outcome of this test for `Clc1ccc(Cn2c(CN3CCCC3)nc3ccccc32)cc1` ?
active

Identify the outcome logged in this assay for the compound shown: `O=C(Nc1ccccc1)c1ccccc1O`
active

Record request — test call for `O=P(O)(OCc1ccccc1)OCc1ccccc1`
inactive

State the result this test recorded for O=C(O)C(S)C(S)C(=O)O (stereo not given) .
inactive

Outcome logged for `CC1=CC=C(C(C)C)CC1` in this assay:
active

Hey, what did the test say about `CCC(=O)O[C@]1(C(=O)CCl)[C@@H](C)C[C@H]2[C@@H]3CCC4=CC(=O)C=C[C@]4(C)[C@@]3(F)[C@@H](O)C[C@@]21C` ?
inactive

Please let me know the test result on file for `COc1cc(C(=O)OCCCN2CCCN(CCCOC(=O)c3cc(OC)c(OC)c(OC)c3)CC2)cc(OC)c1OC` .
inactive

GET /call?item= `CCCCCCCCCc1ccc(OCCOCCO)cc1` returns the recorded outcome of this test.
inactive
